Test system: Spodoptera littoralis (Egyptian Cotton Leaf Worm)
Test: Spodoptera littoralis, agar / lettuce root uptake test
Type: in vivo
Settings: 144 h, mixed with agar, uptake by lettuce roots, mortality 6 days after infestation
Measured attribute: pest or weed control at 12.5 ppm

Query the reported pest or weed control at 12.5 ppm for Spodoptera littoralis (Egyptian Cotton Leaf Worm); item: COc1c(NC(=O)c2ccc[n+]([O-])c2)cccc1C(=O)Nc1c(Br)cc(C(F)(C(F)(F)F)C(F)(F)Cl)cc1OC(F)F (stereo not shown) ≥ 80%

What do you get for N#Cc1ccc(C(=O)Nc2cccc(C(=O)Nc3c(Br)cc(C(F)(C(F)(F)F)C(F)(F)Cl)cc3OC(F)F)c2F)cc1 (stereo not shown) ? ≥ 80%

What do you get for COc1c(NC(=O)c2ccncc2)cccc1C(=O)Nc1c(Br)cc(C(F)(C(F)(F)F)C(F)(F)Cl)cc1OC(F)F (stereo not shown) ? ≥ 80%

What do you get for O=C(Nc1cccc(C(=O)Nc2c(Br)cc(C(F)(C(F)(F)F)C(F)(F)Br)cc2OC(F)F)c1F)c1ccncc1 (stereo not shown) ? ≥ 80%

What do you get for COc1c(NC(=O)c2cccnc2)cccc1C(=O)Nc1c(Br)cc(C(F)(C(F)(F)F)C(F)(F)Cl)cc1OC(F)F (stereo not shown) ? ≥ 80%

What do you get for CCN(C(=O)c1cccnc1)c1cccc(C(=O)Nc2c(Br)cc(C(F)(C(F)(F)F)C(F)(F)Cl)cc2OC(F)F)c1OC (stereo not shown) ? ≥ 80%

What do you get for CCN(C(=O)c1ccncc1)c1cccc(C(=O)Nc2c(Cl)cc(C(F)(C(F)(F)F)C(F)(F)Br)cc2Br)c1OC (stereo not shown) ? ≥ 80%

====

Test system: Spodoptera littoralis (Egyptian Cotton Leaf Worm)
Assay: Spodoptera littoralis, agar / lettuce root uptake test
Type: in vivo
Conditions: 144 h, mixed with agar, uptake by lettuce roots, mortality 6 days after infestation
Measured attribute: pest or weed control at 12.5 ppm

Query the reported pest or weed control at 12.5 ppm for Spodoptera littoralis (Egyptian Cotton Leaf Worm); item: CCN(C(=O)c1ccc(C#N)cc1)c1cccc(C(=O)Nc2c(Br)cc(C(F)(C(F)(F)F)C(F)(F)Br)cc2OC(F)F)c1OC (stereo not shown) ≥ 80%

What do you get for CCN(C(=O)c1cccnc1)c1cccc(C(=O)Nc2c(Br)cc(C(F)(C(F)(F)F)C(F)(F)Cl)cc2OC(F)F)c1F (stereo not shown) ? ≥ 80%

What do you get for CCc1cc(C(F)(C(F)(F)F)C(F)(F)Cl)cc(Br)c1NC(=O)c1cccc(NC(=O)c2cccnc2)c1OC (stereo not shown) ? ≥ 80%

What do you get for CCN(C(=O)c1ccc(C#N)cc1)c1cccc(C(=O)Nc2c(Br)cc(C(F)(C(F)(F)F)C(F)(F)Cl)cc2OC(F)F)c1OC (stereo not shown) ? ≥ 80%

What do you get for CCN(C(=O)c1ccncc1)c1cccc(C(=O)Nc2c(Br)cc(C(F)(C(F)(F)F)C(F)(F)Cl)cc2OC(F)F)c1F (stereo not shown) ? ≥ 80%

What do you get for O=C(Nc1cccc(C(=O)Nc2c(Br)cc(C(F)(C(F)(F)F)C(F)(F)Cl)cc2OC(F)F)c1F)c1ccc[n+]([O-])c1 (stereo not shown) ? ≥ 80%

What do you get for CCN(C(=O)c1ccc[n+]([O-])c1)c1cccc(C(=O)Nc2c(Br)cc(C(F)(C(F)(F)F)C(F)(F)Cl)cc2OC(F)F)c1OC (stereo not shown) ? ≥ 80%

What do you get for CCN(C(=O)c1cc[n+]([O-])cc1)c1cccc(C(=O)Nc2c(Br)cc(C(F)(C(F)(F)F)C(F)(F)Cl)cc2OC(F)F)c1F (stereo not shown) ? ≥ 80%

What do you get for CCN(C(=O)c1ccncc1)c1cccc(C(=O)Nc2c(Br)cc(C(F)(C(F)(F)F)C(F)(F)Br)cc2OC(F)F)c1F (stereo not shown) ? ≥ 80%

What do you get for CCN(C(=O)c1ccc[n+]([O-])c1)c1cccc(C(=O)Nc2c(Br)cc(C(F)(C(F)(F)F)C(F)(F)Cl)cc2OC(F)F)c1F (stereo not shown) ? ≥ 80%

What do you get for COc1c(NC(=O)c2cc[n+]([O-])cc2)cccc1C(=O)Nc1c(Br)cc(C(F)(C(F)(F)F)C(F)(F)Cl)cc1OC(F)F (stereo not shown) ? ≥ 80%

What do you get for COc1c(NC(=O)c2ccncc2)cccc1C(=O)Nc1c(Cl)cc(C(F)(C(F)(F)F)C(F)(F)Br)cc1Br (stereo not shown) ? ≥ 80%

What do you get for N#Cc1ccc(C(=O)Nc2cccc(C(=O)Nc3c(Br)cc(C(F)(C(F)(F)F)C(F)(F)Br)cc3OC(F)F)c2F)cc1 (stereo not shown) ? ≥ 80%

Data origin: patent USRE49022E1
